Data credit: the kinase profiling compilation of Christmann-Franck et al. (2016)

Molecular target: UniProt Q8TD08
Sequence (Q8TD08 whole entry, looked up): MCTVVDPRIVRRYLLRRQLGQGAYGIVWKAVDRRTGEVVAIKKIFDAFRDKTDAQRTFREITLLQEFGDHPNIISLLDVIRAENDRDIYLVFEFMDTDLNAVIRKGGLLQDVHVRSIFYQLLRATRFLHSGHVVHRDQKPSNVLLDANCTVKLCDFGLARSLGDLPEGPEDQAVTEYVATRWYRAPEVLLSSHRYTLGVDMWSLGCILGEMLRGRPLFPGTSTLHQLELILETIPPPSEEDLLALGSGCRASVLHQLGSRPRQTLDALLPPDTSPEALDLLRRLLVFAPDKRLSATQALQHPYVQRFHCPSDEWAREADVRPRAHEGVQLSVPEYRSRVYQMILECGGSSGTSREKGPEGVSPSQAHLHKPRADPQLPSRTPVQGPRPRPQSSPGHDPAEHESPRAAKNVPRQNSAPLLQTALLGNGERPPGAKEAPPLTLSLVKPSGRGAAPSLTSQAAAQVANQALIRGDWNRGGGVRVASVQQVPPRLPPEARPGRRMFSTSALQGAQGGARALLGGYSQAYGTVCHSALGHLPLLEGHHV
Test: radiometric filter-binding kinase assay
Conditions: compound 0.01 µM
measured endpoint: residual activity (%)
Kindly answer with a numeric value in %, unit omitted.

Challenge: # returns recorded residual activity (system: UniProt Q8TD08) for `C/C(=C1/C(=O)Nc2ccc(NC(N)=O)cc21)c1ccc[nH]1`
Response given: 49

Challenge: Same for `COc1ccc(N(C(=O)Nc2c(C)cccc2C)c2cc(Nc3ccc(N4CCN(C)CC4)cc3)ncn2)c(OC)c1`
Response given: 108

Challenge: Same for `O=C(Nc1nc2cc(C(F)(F)F)cc(NC3CC3)n2n1)c1cccnc1`
Response given: 102

Challenge: What about this compound? COc1cc(O)c2c(c1)[C@H]1OC1C[C@H](O)[C@H](O)C(=O)/C=C\C[C@H](C)OC2=O (stereo partly specified)
Response given: 80

Challenge: Next up: `CNc1nc(-c2ccc3c(N)n[nH]c3c2)cc(N2C[C@@H](C(=O)NC3CCCCC3)CC[C@H]2C)n1`
Response given: 106

Challenge: Now the same for CNC(=O)C1[C@H]2O[C@@](C)([C@@H]1N)n1c3ccccc3c3c4c(c5c6ccccc6n2c5c31)C(=O)NC4 (stereo partly specified)
Response given: 48

----------
Target: CHEK2 (human)
Assay: radiometric filter-binding kinase assay
Settings: compound 0.01 µM
Decision: residual activity >= 90% yields criterion met, all other cases yield criterion not met.

Challenge: Textbook exercise: given the entry CNC(=O)C1[C@H]2O[C@@](C)([C@@H]1N)n1c3ccccc3c3c4c(c5c6ccccc6n2c5c31)C(=O)NC4 (stereo not given in full) , state whether its residual activity is greater than or equal to 90%.
Response given: criterion not met

Challenge: Would you kindly repeat that for `C/C(=C1/C(=O)Nc2ccc(NC(N)=O)cc21)c1ccc[nH]1` ?
Response given: criterion not met

Challenge: Same question for `O=C(Nc1nc2cc(C(F)(F)F)cc(NC3CC3)n2n1)c1cccnc1` please.
Response given: criterion met

----------
I'd appreciate it if you could supply residual activity values for the items below.
Target: MAPK3 (human) (UniProt P27361)
Sequence (P27361 whole entry, looked up): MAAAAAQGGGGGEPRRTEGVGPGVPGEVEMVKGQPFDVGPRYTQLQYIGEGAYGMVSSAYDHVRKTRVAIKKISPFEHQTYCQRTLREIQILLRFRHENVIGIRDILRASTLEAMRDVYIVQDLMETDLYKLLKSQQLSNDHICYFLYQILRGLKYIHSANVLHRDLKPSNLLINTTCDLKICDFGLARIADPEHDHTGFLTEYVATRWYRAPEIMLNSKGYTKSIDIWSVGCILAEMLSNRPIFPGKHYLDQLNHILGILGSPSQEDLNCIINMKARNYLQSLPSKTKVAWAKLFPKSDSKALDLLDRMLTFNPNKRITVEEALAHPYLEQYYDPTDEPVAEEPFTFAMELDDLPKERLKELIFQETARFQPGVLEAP
Assay: radiometric filter-binding kinase assay
Conditions: compound 1.0 µM
Kindly provide the numeric value in % only, without the unit symbol.

Challenge: Return reported residual activity; argument: `O=C(Nc1ccccc1-c1cn2c(CN3CCNCC3)csc2n1)c1cnc2ccccc2n1`
Response given: 105

Challenge: Input `COc1cc2ncn(-c3cc(OCc4ccccc4S(C)(=O)=O)c(C#N)s3)c2cc1OC`
Response given: 101

Challenge: Lookup COc1ccc2c(c1)c1c3c(c4c5ccccc5n(C)c4c1n2CC(O)CN(C)C)C(=O)NC3=O (stereo not given)
Response given: 102

Challenge: And `NC(=O)c1ccc(-c2ccc(Oc3cncc4sc(-c5nn[nH]n5)cc34)cc2)cc1` ?
Response given: 97

Challenge: Another molecule to look at: `O=C1NC(=S)N[C@@H]1Cc1c[nH]c2ccccc12`
Response given: 107

Challenge: Next molecule: `Oc1ccc2ccccc2c1SSc1c(O)ccc2ccccc12`
Response given: 9

Challenge: Another: `CNc1nc(-c2ccc3c(N)n[nH]c3c2)cc(N2C[C@@H](C(=O)NC3CCCCC3)CC[C@H]2C)n1`
Response given: 103

Challenge: Then what about the molecule `CCc1cncnc1N1CCN(Cc2nc3cc(C(F)(F)F)ccc3[nH]2)CC1` ?
Response given: 85

Challenge: Again, but for `NCC(=O)Nc1ccc(-n2nc(C(F)(F)F)cc2-c2ccc3c(ccc4ccccc43)c2)cc1`
Response given: 80

Challenge: Same question, `N#Cc1c(C2CCNCC2)cc(-c2c(O)cccc2OCC2CC2)nc1N` this time
Response given: 85

Challenge: Would you kindly repeat that for `O=C(NCCCNc1nc(Nc2cccc(CN3CCOCC3)c2)ncc1C1CC1)C1CCC1` ?
Response given: 112

Challenge: Can you handle `CCn1c(-c2nonc2N)nc2cncc(CNC3CCNCC3)c21` next?
Response given: 98

Challenge: `c1ccc2c(-c3cnn4cc(-c5ccc(N6CCNCC6)cc5)cnc34)ccnc2c1` ?
Response given: 97

Challenge: Record: `NS(=O)(=O)OC[C@@H]1C[C@@H](n2ccc3c(N[C@H]4CCc5ccccc54)ncnc32)C[C@@H]1O`
Response given: 77

Challenge: One more molecule: `CCCCCc1ccc(/C=C/[C@H](O)[C@@H](CO)NC)cc1`
Response given: 97

Challenge: Another molecule: `O=C(O)c1cc(N=Nc2ccc(S(=O)(=O)Nc3ccccn3)cc2)ccc1O`
Response given: 103

Challenge: # iterate: `COc1ccc(N(C(=O)Nc2c(C)cccc2C)c2cc(Nc3ccc(N4CCN(C)CC4)cc3)ncn2)c(OC)c1`
Response given: 95

Challenge: Next molecule: `CC(C)(C#N)c1ccc(N2C(=O)OCc3cnc4ccc(-c5cnc6ccccc6c5)cc4c32)cc1`
Response given: 85

Challenge: Follow-up entry: `Cc1ccc(Sc2cnc(Nc3cccc(Br)n3)s2)cc1C(=O)N1CCN(C(=O)CN)CC1`
Response given: 78

Challenge: What do you have for Nc1cccc2c1CN(C1CCC(=O)NC1=O)C2=O (stereo not given) ?
Response given: 90

Challenge: Cool, now `O=C(N[C@@H](COc1ccc2[nH]c(=O)[nH]c2c1)c1ccccc1)c1cccn(Cc2ccc(F)c(F)c2)c1=O`
Response given: 101

Challenge: Consider next the molecule `Cc1cc(NC(=O)c2cccc(NC(=O)/C=C/CN(C)C)c2)ccc1Nc1nccc(-c2cccnc2)n1` in the same way.
Response given: 99

Challenge: Also, `Cc1ccc(-c2ccc3c(ccc4sc5c(c43)NC[C@@H](C)NC5=O)n2)cn1` please.
Response given: 108

Challenge: Then `O=C(NOC[C@H](O)CO)c1ccc(F)c(F)c1Nc1ccc(I)cc1Cl` ?
Response given: 88

Challenge: Field entry: `NC(=O)c1c(NC(=O)C2CC2)sc2c1CCCC2`
Response given: 107

Challenge: What about this molecule? `O=C(O)c1ccc(-c2c[nH]c3ncc(-c4ccccc4)cc23)cc1C1CCCC1`
Response given: 75

Challenge: Would you mind doing O=C(NOCC(O)CO)c1ccc(F)c(F)c1Nc1ccc(I)cc1Cl (stereo not given) as well?
Response given: 100

Challenge: Follow-up item: `Cn1nc(Nc2ccc(F)cc2)c2c(N)ncnc21`
Response given: 124

Challenge: Next entry: `CN(C)C/C=C/C(=O)Nc1cccc(C(=O)Nc2ccc(Nc3nccc(-c4cccnc4)n3)cc2)c1`
Response given: 109

Challenge: Same read-out for `C[C@H]1CCCC(=O)CCC/C=C/c2cc(O)cc(O)c2C(=O)O1` ?
Response given: 113

Challenge: What would you report for `O=c1c(O)c(-c2ccc(O)c(O)c2)oc2cc(O)c(O)c(O)c12` ?
Response given: 101

Challenge: Also, `CCNc1nc(Nc2cc(F)c(C(=O)N3CCOCC3)cc2OC)ncc1C(F)(F)F` please.
Response given: 85

Challenge: Next molecule up: CC1=C(CO)C(=O)O[C@@H]([C@@H](C)[C@H]2CC[C@H]3[C@@H]4C[C@H]5O[C@]56[C@@H](O)C=CC(=O)[C@]6(C)C4CC[C@]23C)C1 (stereo not given in full)
Response given: 100

Challenge: Another molecule to check: C=C1C(=O)OC2C1CC/C(C)=C/CCC1(C)OC21 (stereo not given)
Response given: 105

Challenge: # repeat for `Cc1cc(SCc2sc(-c3ccc(C(F)(F)F)cc3)nc2C)ccc1OCC(=O)O`
Response given: 115

Challenge: Another: `COc1cc(O)c2c(c1)/C=C/C[C@H](O)[C@H](O)C(=O)/C=C\C[C@H](C)OC2=O`
Response given: 64

Challenge: And for `O=C(Nc1nc2cc(C(F)(F)F)cc(NC3CC3)n2n1)c1cccnc1` ?
Response given: 116

Challenge: Try the molecule `Oc1ccc(/C=C/c2cc(O)cc(O)c2)cc1`
Response given: 101

Challenge: Would you mind doing `FC(F)(F)c1ccc(-c2ccc(Oc3cncc4sc(-c5nn[nH]n5)cc34)cc2)cc1` as well?
Response given: 101

Challenge: Also check `Cc1cccc(Nc2nn(C)c3ncnc(N)c23)c1`
Response given: 114

----------
Biological target: PAK6 (human) (UniProt Q9NQU5)
Sequence (Q9NQU5 whole entry, looked up): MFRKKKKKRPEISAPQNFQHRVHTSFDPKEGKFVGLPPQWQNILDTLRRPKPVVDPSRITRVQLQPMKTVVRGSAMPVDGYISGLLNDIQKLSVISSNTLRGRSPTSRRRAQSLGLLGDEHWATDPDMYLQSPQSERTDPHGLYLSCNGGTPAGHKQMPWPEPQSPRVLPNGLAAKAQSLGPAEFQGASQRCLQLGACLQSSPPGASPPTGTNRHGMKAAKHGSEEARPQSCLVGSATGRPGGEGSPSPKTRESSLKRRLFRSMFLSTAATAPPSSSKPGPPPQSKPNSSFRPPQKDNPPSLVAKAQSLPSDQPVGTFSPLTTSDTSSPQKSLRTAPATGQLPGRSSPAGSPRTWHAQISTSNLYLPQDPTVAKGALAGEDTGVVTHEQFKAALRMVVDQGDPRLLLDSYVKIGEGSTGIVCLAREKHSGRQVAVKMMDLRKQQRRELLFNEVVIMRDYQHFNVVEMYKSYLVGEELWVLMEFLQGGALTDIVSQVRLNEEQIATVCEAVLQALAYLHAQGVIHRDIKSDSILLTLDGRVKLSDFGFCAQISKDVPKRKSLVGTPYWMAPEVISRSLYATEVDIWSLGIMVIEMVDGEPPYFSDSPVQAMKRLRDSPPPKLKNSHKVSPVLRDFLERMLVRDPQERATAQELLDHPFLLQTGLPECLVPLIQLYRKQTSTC
Test: radiometric filter-binding kinase assay
Settings: compound 0.1 µM
Exercise: for every item that follows, state its recorded residual activity.
The figure you give is taken to be in %; do not add the unit.

Challenge: Can you share its residual activity? I mean this compound: `c1ccc2c(-c3cnn4cc(-c5ccc(N6CCNCC6)cc5)cnc34)ccnc2c1`
Response given: 108

Challenge: Ok, now `Cn1c(=O)c2c(ncn2C)n(C)c1=O`
Response given: 97

Challenge: Same for `O=C(Nc1nc2cc(C(F)(F)F)cc(NC3CC3)n2n1)c1cccnc1`
Response given: 88

Challenge: Next entry: `Cc1ccc(-c2ccc3c(ccc4sc5c(c43)NC[C@@H](C)NC5=O)n2)cn1`
Response given: 117

Challenge: Record: COc1ccc2c(c1)c1c3c(c4c5ccccc5n(C)c4c1n2CC(O)CN(C)C)C(=O)NC3=O (stereo not given)
Response given: 107

Challenge: What about this compound? COc1cc(O)c2c(c1)[C@H]1OC1C[C@H](O)[C@H](O)C(=O)/C=C\C[C@H](C)OC2=O (stereo not given in full)
Response given: 95

Challenge: How about this compound: `Cc1ccc(Sc2cnc(Nc3cccc(Br)n3)s2)cc1C(=O)N1CCN(C(=O)CN)CC1`
Response given: 71

Challenge: Please do the same for `CCc1cncnc1N1CCN(Cc2nc3cc(C(F)(F)F)ccc3[nH]2)CC1` as well.
Response given: 99

Challenge: One more compound: `Cc1cc(NC(=O)c2cccc(NC(=O)/C=C/CN(C)C)c2)ccc1Nc1nccc(-c2cccnc2)n1`
Response given: 110

Challenge: Please do the same for `COc1ccc(N(C(=O)Nc2c(C)cccc2C)c2cc(Nc3ccc(N4CCN(C)CC4)cc3)ncn2)c(OC)c1` as well.
Response given: 101
